system: transglutaminase (TGase); assay: Measurement of TG (TGase inhibitory activity, monodansyl cadaverine / N,N-dimethylcasein fluorescence, FDSS 3000); assay type: biochemical; conditions: TGase inhibitory activity measurement; unit not given
TGase activity remaining (% of DMSO control = 100) less than 40 is Yes; TGase activity remaining (% of DMSO control = 100) greater than or equal to 40 is No.

Take a look at these entries with their results.
CN(C)CCOB(c1ccc(COCc2ccc(B(OCCN(C)C)c3ccc(C(F)(F)F)cc3)cc2)cc1)c1ccc(C(F)(F)F)cc1 [Example 424]	Yes
NCCCCC(N)C(=O)OB(c1ccccc1)c1cccc(COCc2cccc(B(OC(=O)C(N)CCCCN)c3ccccc3)c2)c1 (stereo not shown) [Example 475]	Yes
Cc1ccc(B(OC(=O)C(N)CC(N)=O)c2ccc(COCc3ccc(B(OC(=O)C(N)CC(N)=O)c4ccc(C)cc4)cc3)cc2)cc1 (stereo not shown) [Example 449]	No
NCCSB(c1ccccc1)c1ccc(Oc2ccc(B(SCCN)c3ccccc3)cc2)cc1 [Example 433]	Yes
CNCCOB(c1ccccc1)c1ccc(COCc2ccc(B(OCCNC)c3ccccc3)cc2)cc1 [Example 400]	No
NCCOB(c1ccc(Oc2ccc(B(OCCN)c3cccc4ccccc34)cc2)cc1)c1cccc2ccccc12 [Example 441]	Yes
c1ccc(B(OCc2ccccn2)c2ccc(COc3ccc(B(OCc4ccccn4)c4ccccc4)cc3)cc2)cc1 [Example 429]	No
NCCSB(c1ccccc1)c1ccc(COCc2ccc(B(SCCN)c3ccccc3)cc2)cc1 [Example 451]	Yes

Identify whether the compound CC(CN)OB(c1ccccc1)c1ccc(COCc2ccc(B(OC(C)CN)c3ccccc3)cc2)cc1 (stereo not shown) [Example 458] records TGase activity remaining (% of DMSO control = 100) below 40. Yes

Identify whether the compound Cc1ccc(B(OCCN2CCCCC2)c2ccc(Oc3ccc(B(OCCN4CCCCC4)c4ccc(C)cc4)cc3)cc2)cc1 [Example 447] records TGase activity remaining (% of DMSO control = 100) below 40. No

###

tested on: transglutaminase (TGase); assay: Measurement of TG (TGase inhibitory activity, monodansyl cadaverine / N,N-dimethylcasein fluorescence, FDSS 3000); type: biochemical; conditions: TGase inhibitory activity measurement; unit not given
The class of a record is decided solely by its measured TGase activity remaining (% of DMSO control = 100); consult low end: < 30; middle: ≥ 30 and < 50; high end: ≥ 50

Take a look at these entries with their results.
CCCCNCCOB(c1ccccc1)c1ccc(COCc2ccc(B(OCCNCCCC)c3ccccc3)cc2)cc1	low end
c1ccc(B(OCC2CCCN2)c2ccc(Oc3ccc(B(OCC4CCCN4)c4ccccc4)cc3)cc2)cc1 (centres unmarked)	low end
NCCC(N)C(=O)OB(c1ccccc1)c1cccc(COCc2cccc(B(OC(=O)C(N)CCN)c3ccccc3)c2)c1 (centres unmarked)	middle
c1ccc(B(OCC2CCCCN2)c2cccc(COCc3cccc(B(OCC4CCCCN4)c4ccccc4)c3)c2)cc1 (centres unmarked)	low end

// bin(item) where item = NC(COB(c1ccccc1)c1ccc(Oc2ccc(B(OCC(N)Cc3ccccc3)c3ccccc3)cc2)cc1)Cc1ccccc1 (centres unmarked) high end

// bin(item) where item = c1ccc(B(OCCN2CCCCC2)c2cccc(COCc3cccc(B(OCCN4CCCCC4)c4ccccc4)c3)c2)cc1 high end

// bin(item) where item = Cc1ccc(B(OC(=O)C(N)CCCCN)c2ccc(Oc3ccc(B(OC(=O)C(N)CCCCN)c4ccc(C)cc4)cc3)cc2)cc1 (centres unmarked) high end
